These data points were gathered from patent US20260347348A1.

experiment description: Mini-pig dermal pharmacokinetic study
Assay type: in vivo, Guangxi Bama mini-pigs
condition context: minipig, topical or ocular; topical ointment, 15 mg/cm^2 at 0 h, 8 h and 24 h; read-out: Dermis/Plasma ratio (AUC)
measurement kind: Kp
Number only, please.

Recall and state the measured Kp for `Cc1cnc(Nc2cnn(C)c2)nc1-c1cnn([C@H](CC#N)C2CCCC2)c1` .
5020

###

The following compounds each carry a recorded IC50 for JAK2 (Homo sapiens, UniProt O60674).

> print(dat)
                                   compound                          test.system  reported
1  CNS(=O)(=O)C[C@H]1CC[C@H](N(C)c2nc(Nc3cnn(C)c3)ncc2C)CC1 [Compound 21, reference compound]  JAK2 (Homo sapiens, UniProt O60674)  > 100 nM
2  Cc1cnc(Nc2cnn(CC3COC3)c2)nc1-c1cnn([C@H](CC#N)C2CCCC2)c1  JAK2 (Homo sapiens, UniProt O60674)    < 1 nM
3  CCCS(=O)(=O)N[C@H]1C[C@@H](N(C)c2nc(Nc3cnn(C)c3)ncc2C)C1 [Compound 20, reference compound]  JAK2 (Homo sapiens, UniProt O60674)   > 10 nM
4  CCS(=O)(=O)N1CC(CC#N)(n2cc(-c3nc(Nc4cn(C)nn4)ncc3C)cn2)C1 [Compound 19, reference compound]  JAK2 (Homo sapiens, UniProt O60674)   > 10 nM
5  Cc1cnc(Nc2ccc3ncn(C)c3c2)nc1-c1cnn([C@H](CC#N)C2CCCC2)c1  JAK2 (Homo sapiens, UniProt O60674)    < 1 nM
6  Cc1cnc(Nc2cnoc2)nc1-c1cnn([C@H](CC#N)C2CCCC2)c1  JAK2 (Homo sapiens, UniProt O60674)    < 1 nM

Now look at this entry.
Answer with IC50 of `Cc1cnc(Nc2cnn(CCO)c2)nc1-c1cnn([C@H](CC#N)C2CCCC2)c1` measured for JAK2 (Homo sapiens, UniProt O60674).
< 1 nM
